# Organism: Rattus norvegicus
# protocolNotes: Open TG-GATES - Regimen: Daily Repeat
# Format: toxicity, organism-based, Sprague-Dawley
# Set-up: regimen Daily Repeat, gender Male, age 6 weeks
# conditionSet: in vivo, po, 100 mg/kg, 72 h, tissue Plasma, route gavage, dose level Low, time 3 day
The threshold is inclusive: GLC of exactly 200 mg/dL counts as met; values below receive not met.

Q: Quick check: does CCOc1ccc(NC(=O)CC(C)O)cc1 (stereo not given) have GLC greater than or equal to 200 mg/dL?
Ans: not met

Q: Quick check: does NC(N)=Nc1nc(CSCCC(N)=NS(N)(=O)=O)cs1 have GLC greater than or equal to 200 mg/dL?
Ans: not met

Q: Quick check: does COC1=CC(=O)C[C@@H](C)[C@]12Oc1c(Cl)c(OC)cc(OC)c1C2=O have GLC greater than or equal to 200 mg/dL?
Ans: met

Q: Quick check: does CCOC(=O)CCC(=O)O[C@H]1[C@H](O[C@@H]2[C@@H](C)[C@H](O[C@H]3C[C@@](C)(OC)[C@@H](O)[C@H](C)O3)[C@@H](C)C(=O)O[C@H](CC)[C@@](C)(O)[C@H](O)[C@@H](C)C(=O)[C@H](C)C[C@@]2(C)O)O[C@H](C)C[C@@H]1N(C)C [ERYTHROMYCIN ETHYLSUCCINATE] have GLC greater than or equal to 200 mg/dL?
Ans: not met

Q: Quick check: does COc1ccc2[nH]c([S+]([O-])Cc3ncc(C)c(OC)c3C)nc2c1 (stereo not given) have GLC greater than or equal to 200 mg/dL?
Ans: met

###

# Organism: Rattus norvegicus
# protocolNotes: Open TG-GATES - Regimen: Daily Repeat
# Format: toxicity, organism-based, Sprague-Dawley
# Set-up: regimen Daily Repeat, gender Male, age 6 weeks
# conditionSet: in vivo, po, 300 mg/kg, […], tissue Plasma, route gavage, dose level Middle, time 14 day
Exercise: state measured TG for each of the compounds provided.
API: value field is a number in mg/dL; no unit string.

Q: Which TG value belongs to CCOc1ccc(NC(=O)CC(C)O)cc1 (stereo not given) ?
Ans: 208.6

Q: Which TG value belongs to COC1=CC(=O)C[C@@H](C)[C@]12Oc1c(Cl)c(OC)cc(OC)c1C2=O ?
Ans: 59.6

Q: Which TG value belongs to NC(N)=Nc1nc(CSCCC(N)=NS(N)(=O)=O)cs1 ?
Ans: 97.4

Q: Which TG value belongs to COc1ccc2[nH]c([S+]([O-])Cc3ncc(C)c(OC)c3C)nc2c1 (stereo not given) ?
Ans: 78.4

Q: Which TG value belongs to CCOC(=O)CCC(=O)O[C@H]1[C@H](O[C@@H]2[C@@H](C)[C@H](O[C@H]3C[C@@](C)(OC)[C@@H](O)[C@H](C)O3)[C@@H](C)C(=O)O[C@H](CC)[C@@](C)(O)[C@H](O)[C@@H](C)C(=O)[C@H](C)C[C@@]2(C)O)O[C@H](C)C[C@@H]1N(C)C [ERYTHROMYCIN ETHYLSUCCINATE] ?
Ans: 105.2

###

# Species: Rattus norvegicus
# protocolNotes: Open TG-GATES - Regimen: Single
# Format: toxicity, organism-based, Sprague-Dawley
# Set-up: regimen Single, gender Male, age 6 weeks
# conditionSet: in vivo, po, 10 mg/kg, 24 h, tissue Plasma, route gavage, dose level Low
outcomeMeasure: ALP
Write the numeric value and append its unit.

Q: Which ALP value belongs to CN(C)CCN(Cc1cccs1)c1ccccn1 ?
Ans: 1858.2 IU/L

Q: Which ALP value belongs to CN(C)CCCN1c2ccccc2CCc2ccc(Cl)cc21 ?
Ans: 1661.4 IU/L

Q: Which ALP value belongs to CC1=C(/C=C/C(C)=C/C=C/C(C)=C/CO)C(C)(C)CCC1 ?
Ans: 1455.4 IU/L

Q: Which ALP value belongs to CN(C)CCCN1c2ccccc2CCc2ccccc21 ?
Ans: 1443 IU/L

Q: Which ALP value belongs to CC(C)OC(=O)C(C)(C)Oc1ccc(C(=O)c2ccc(Cl)cc2)cc1 [FENOFIBRATE] ?
Ans: 1838.8 IU/L
